target desc: equine BChE (eqBChE) (Equus caballus)
Construct: purchased Sigma-Aldrich (Milan, Italy)
Sequence (P81908 whole entry): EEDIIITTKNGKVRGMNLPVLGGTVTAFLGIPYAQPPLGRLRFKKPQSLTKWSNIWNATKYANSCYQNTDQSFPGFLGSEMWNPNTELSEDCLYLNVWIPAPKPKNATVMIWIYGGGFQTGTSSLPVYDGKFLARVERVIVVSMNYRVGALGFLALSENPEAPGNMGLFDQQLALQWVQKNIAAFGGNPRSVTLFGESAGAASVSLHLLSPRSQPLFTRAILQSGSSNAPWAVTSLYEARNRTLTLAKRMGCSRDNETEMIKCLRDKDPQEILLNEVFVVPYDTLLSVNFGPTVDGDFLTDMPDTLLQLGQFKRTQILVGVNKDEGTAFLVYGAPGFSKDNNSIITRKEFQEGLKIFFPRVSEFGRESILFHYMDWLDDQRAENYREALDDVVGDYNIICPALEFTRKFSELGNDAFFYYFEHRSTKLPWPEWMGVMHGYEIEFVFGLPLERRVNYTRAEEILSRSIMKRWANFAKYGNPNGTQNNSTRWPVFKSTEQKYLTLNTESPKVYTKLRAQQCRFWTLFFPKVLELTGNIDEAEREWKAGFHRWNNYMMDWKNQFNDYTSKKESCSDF
procedure summary: Percent inhibition of eqBChE, Ellman's spectrophotometric method
Format: biochemical
conditions used: 900 nM; supplement csv
Tag: MET if measured % inhibition vs eqBChE ± SD (900 uM) is not below 20%, NOT MET if it is.

molecule: Brc1ccc(CNCCCCCCNc2ncccn2)cc1 [Compound 14]
category: NOT MET
//
molecule: COc1ccccc1CNCCCCCCNc1ncccn1 [Compound 16]
category: NOT MET
//
molecule: COc1cc(CNCCCCCCNc2ccccn2)ccc1O [Compound 30]
category: NOT MET
//
molecule: c1cnc(NCCCCCCNCc2c[nH]c3ccccc23)nc1 [Compound 22]
category: MET
//
molecule: COc1cc(CNCCCCCCNc2ncccn2)ccc1O [Compound 18]
category: MET
